Source listed as patent US6441195B1.

For each of the molecules below, state its degree of damage to the plants (% damage vs untreated control), Matricaria.
test system: Matricaria; test: Pre-emergence test/Greenhouse, Matricaria; assay type: in vivo; conditions: 250 g of ai./ha, after three weeks
Answer with the figure and its unit, nothing else.

Hey, can you go through the list below and give me degree of damage to the plants (% damage vs untreated control), Matricaria for every item?
1. COC(=O)c1cccc(Cl)c1S(=O)(=O)NC(=O)n1nc(SC)n(C)c1=O
2. CCOC(=O)c1cccc(Cl)c1S(=O)(=O)NC(=O)n1nc(SC)n(C)c1=O
3. CCOC(=O)c1cccc(C)c1S(=O)(=O)NC(=O)c1noc(C)n1
4. CCOc1nn(C(=O)NS(=O)(=O)c2c(Cl)cccc2C(=O)OC)c(=O)n1C

Resp:
95%
80%
95%
90%

---

Exercise: state measured degree of damage to the plants (% damage vs untreated control), Sorghum for each of the compounds provided.
test system: Sorghum; test: Pre-emergence test/Greenhouse, Sorghum; format: in vivo; settings: 125 g of ai./ha, after three weeks
Answers are plain numbers, in %.

| COMPOUND | TARGET_OF_ASSAY | OBSERVED_VALUE |
| --- | --- | --- |
| CCOC(=O)c1scc(C)c1S(=O)(=O)NC(=O)n1nc(SC)n(C)c1=O [Example 55] | Sorghum | 60 |
| CCOC(=O)c1scc(C)c1S(=O)(=O)NC(=O)n1nc(CC)n(OCC)c1=O [Example 61] | Sorghum | 80 |
| CCCOC(=O)c1cccc(C)c1S(=O)(=O)NC(=O)n1nc(OC(C)C)n(C)c1=O [Example 23] | Sorghum | 60 |

Req: Entry CCCOC(=O)c1cccc(C)c1S(=O)(=O)NC(=O)n1nc(OC)n(C)c1=O [Example 20] : reported degree of damage to the plants (% damage vs untreated control), Sorghum = ?
Resp: 90

---

test system: Maize; assay: Pre-emergence test/Greenhouse, Maize; type: in vivo; details: in vivo
Provide the reported degree of damage to the plants (% damage vs untreated control), Maize of each item.
One number for each entry, in %.

| COMPOUND | TARGET_OF_ASSAY | UNIT_ABBREVIATION | OBSERVED_VALUE |
| --- | --- | --- | --- |
| C#CCSc1nn(C(=O)NS(=O)(=O)c2c(C)cccc2C(=O)OC)c(=O)n1C1CC1 [Example 160] | Maize | % | 30 |
| CCSc1nn(C(=O)NS(=O)(=O)c2c(C)cccc2C(=O)OC)c(=O)n1C1CC1 [Example 159] | Maize | % | 10 |
| CCCOC(=O)c1scc(C)c1S(=O)(=O)NC(=O)n1nc(OCC)n(C)c1=O [Example 80] | Maize | % | 0 |
| CCOC(=O)c1cccc(Cl)c1S(=O)(=O)NC(=O)n1nc(SC)n(C)c1=O [Example 131] | Maize | % | 0 |

For each listed entry, give its degree of damage to the plants (% damage vs untreated control), Maize.
1. COC(=O)c1cccc(C)c1S(=O)(=O)NC(=O)n1nc(SC)n(OC)c1=O [Example 156]
2. COCc1nn(C(=O)NS(=O)(=O)c2c(C)csc2C(=O)OC)c(=O)n1C [Example 32]
3. COC(=O)c1scc(C)c1S(=O)(=O)NC(=O)n1nc(OC(C)C)n(C2CC2)c1=O [Example 53]
4. COC(=O)c1cccc(C)c1S(=O)(=O)NC(=O)n1nc(OCC(F)(F)F)n(C2CC2)c1=O [Example 142]

Resp:
1: 0; 2: 20; 3: 0; 4: 20

---

system: Soya beans; experiment: Pre-emergence test/Greenhouse, Soya beans; format: in vivo; conditions: in vivo
Threshold check on degree of damage to the plants (% damage vs untreated control), Soya beans: strictly below 20% is 1; on or above 20% is -1.

Previously resolved entries follow.
| TEST_SMILES | CAT |
| --- | --- |
| COC(=O)c1cccc(C)c1S(=O)(=O)NC(=O)n1nc(OCC(F)(F)F)n(C)c1=O | 1 |
| COC(=O)c1cccc(C)c1S(=O)(=O)NC(=O)n1nc(OC)n(C)c1=O | 1 |
| COC(=O)c1cccc(C)c1S(=O)(=O)NC(=O)n1nc(OCC2CC2)n(C)c1=O | -1 |
| CCOc1nn(C(=O)NS(=O)(=O)c2c(C)csc2C(=O)OC(C)C)c(=O)n1C | -1 |
| CCOc1nn(C(=O)NS(=O)(=O)c2c(C)cccc2C(=O)OC(C)C)c(=O)n1CC | 1 |
| CCOC(=O)c1cccc(Cl)c1S(=O)(=O)NC(=O)n1nc(SC)n(C)c1=O | 1 |
| CCOc1nn(C(=O)NS(=O)(=O)c2c(C)cccc2C(=O)OC(C)C)c(=O)n1C | 1 |
| CCCOC(=O)c1cccc(C)c1S(=O)(=O)NC(=O)n1nc(OC)n(C)c1=O | 1 |

Req: Decide: degree of damage to the plants (% damage vs untreated control), Soya beans of `COC(=O)c1cccc(C)c1S(=O)(=O)NC(=O)n1nc(OCC2CC2)n(C2CC2)c1=O` strictly below 20%?
Resp: -1

Req: Is the reported degree of damage to the plants (% damage vs untreated control), Soya beans for `COC(=O)c1cccc(C)c1S(=O)(=O)NC(=O)n1nc(SCC(F)(F)F)n(C2CC2)c1=O` strictly below 20%?
Resp: -1

Req: Dear colleague, could you confirm whether degree of damage to the plants (% damage vs untreated control), Soya beans of `CCOc1nn(C(=O)NS(=O)(=O)c2c(Cl)cccc2C(=O)OC)c(=O)n1C` falls below 20%? Thanks.
Resp: 1

Req: Hi there! Is degree of damage to the plants (% damage vs untreated control), Soya beans for `CCOc1nn(C(=O)NS(=O)(=O)c2c(C)cccc2C(=O)OC)c(=O)n1C` below 20%, do you know?
Resp: 1

Req: API: query returns whether the compound falls strictly under 20% in degree of damage to the plants (% damage vs untreated control), Soya beans. Query: `CCOc1nn(C(=O)NS(=O)(=O)c2c(C)csc2C(=O)OC(C)C)c(=O)n1CC`
Resp: -1

Req: Consider the compound `CCOC(=O)c1cccc(C)c1S(=O)(=O)NC(=O)n1nc(SC)n(C)c1=O` . Is its degree of damage to the plants (% damage vs untreated control), Soya beans strictly less than 20%?
Resp: 1

Req: Hi there! Is degree of damage to the plants (% damage vs untreated control), Soya beans for `CCn1c(OC)nn(C(=O)NS(=O)(=O)c2c(C)cccc2C(=O)OC(C)C)c1=O` below 20%, do you know?
Resp: 1

---

So I've got a bunch of compounds here, and I need their degree of damage to the plants (% damage vs untreated control), Maize values.
test system: Maize; test: Pre-emergence test/Greenhouse, Maize; type: in vivo; conditions: in vivo
Give bare numbers, in %.

I need degree of damage to the plants (% damage vs untreated control), Maize for every entry listed below, if you could help.
1. CCCOC(=O)c1cccc(C)c1S(=O)(=O)NC(=O)n1nc(OC)n(C)c1=O [Example 20]
2. COC(=O)c1cccc(Cl)c1S(=O)(=O)NC(=O)n1nc(SC)n(C)c1=O [Example 130]

Resp:
1: 10; 2: 10

Please give degree of damage to the plants (% damage vs untreated control), Maize for each item listed below.
1. CCOC(=O)c1scc(C)c1S(=O)(=O)NC(=O)n1nc(C)n(C)c1=O [Example 65]
2. COC(=O)c1cccc(C)c1S(=O)(=O)NC(=O)n1nc(OC)n(C2CC2)c1=O [Example 164]
3. CSc1nn(C(=O)NS(=O)(=O)c2c(C)cccc2C(=O)OC(C)C)c(=O)n1C [Example 8]
4. CCc1nn(C(=O)NS(=O)(=O)c2c(C)csc2C(=O)OC)c(=O)n1C [Example 5]
5. CCOc1nn(C(=O)NS(=O)(=O)c2c(C)cccc2C(=O)OC(C)C)c(=O)n1C1CC1 [Example 46]
6. CCOc1nn(C(=O)NS(=O)(=O)c2c(C)csc2C(=O)OC)c(=O)n1C1CC1 [Example 30]

Resp:
1. 20
2. 20
3. 30
4. 0
5. 0
6. 0

---

system: Ambrosia; assay: Pre-emergence test/Greenhouse, Ambrosia; type: in vivo; conditions: 30 g of ai./ha, after three weeks
MEASURED_PARAMETER: degree of damage to the plants (% damage vs untreated control), Ambrosia (%)
Give bare numbers, in %.

Some compounds with recorded degree of damage to the plants (% damage vs untreated control), Ambrosia:
| TEST_SMILES | UNIT_ABBREVIATION | OBSERVED_VALUE |
| --- | --- | --- |
| CCc1nn(C(=O)NS(=O)(=O)c2c(C)csc2C(=O)OC)c(=O)n1C | % | 95 |
| CCCOc1nn(C(=O)NS(=O)(=O)c2c(C)cccc2C(=O)OC(C)C)c(=O)n1C | % | 95 |
| CCOC(=O)c1scc(C)c1S(=O)(=O)NC(=O)n1nc(OCC)n(C)c1=O | % | 95 |

Req: If you can, please state the reported degree of damage to the plants (% damage vs untreated control), Ambrosia value of `CCOc1nn(C(=O)NS(=O)(=O)c2c(C)csc2C(=O)OC)c(=O)n1C1CC1` .
Resp: 95
